- System: BT-549 breast
- experiment.notes: NCI tumour cell line growth inhibition, 48 h
readout.kind: TGI (µM)
Respond numerically; units are µM and should not be typed.

Recorded results for 3 compounds are shown here.
CC[C@@]1(O)C(=O)OCc2c1cc1n(c2=O)Cc2c-1nc1ccc(O)cc1c2[Si](C)(C)C(C)(C)C; 1.17
NNC(=O)Nc1nc2ccc(NN)cc2[nH]1; 84.1
CN(Cc1cnc2nc(N)nc(N)c2n1)c1ccc(C(=O)NC23CC4CC(CC(C4)C2)C3)cc1; 31.1

Please look up its TGI: CC(C)(C)OC(=O)N/C(C=O)=C\C1CCCCC1
70.6

----------
- Tested on: HT29 colon
- experiment.notes: NCI tumour cell line growth inhibition, 48 h; in the data active = GI50 below about 0.43 µM; inactive = the rest
Respond only with the outcome that fits, drawn from true (1) = active, false (0) = inactive

Reference set (2 entries):
Cc1ccc(/C=C(\C#N)c2cc3ccccc3n2C)cc1; true (1)
COc1ccc(C(=O)Cn2c(C(=O)c3ccccc3)nc3ccccc32)cc1; false (0)

Could you now consider this next compound?
Could you kindly confirm the outcome this assay logged for O=C1CCc2c(sc3[nH]c(=S)n(-c4cc(C(F)(F)F)cc(C(F)(F)F)c4)c(=O)c23)C1 ?
false (0)
